Data provenance is patent US20240409645A1.

# TEST SYSTEM: T1, human common cytokine receptor γ-chain (IL-2Rγ) (human, UniProt P31785 23-262, limits assumed)
# T1 construct: Recombinant human IL-2Rγ protein, coated (ELISA) or amine-coupled to a CM5 chip (SPR); also called hu IL-2R; CD132
# T1 sequence: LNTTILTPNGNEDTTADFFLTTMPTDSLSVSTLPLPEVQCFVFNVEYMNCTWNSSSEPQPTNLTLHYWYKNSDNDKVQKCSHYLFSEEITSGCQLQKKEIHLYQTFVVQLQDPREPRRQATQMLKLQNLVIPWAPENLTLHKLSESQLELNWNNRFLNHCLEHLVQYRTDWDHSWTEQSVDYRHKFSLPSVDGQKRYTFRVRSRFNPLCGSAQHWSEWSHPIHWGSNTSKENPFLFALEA
# METHOD: P.E. off-rate SPR
Could you please report measured koff for the items listed next?
Numeric only. Scale: s⁻¹

The measured koff associated with FJ1427_P035MP07D08 (VHH, tested as periplasmic extract; also called Clone nr) VHH: QLQLVESGGGLVQAGGSLRLSCAASGRTLSRYAMGWFRQAPGKEREFVTANSWGGDTYYADSVQGRFTFSRDNAKNTVYLQMNSLQPEDTAVYYCAAAPTSFATTAYSSSNSYAYWGQGTQVTVSS reads 0.00263

koff reading for FJ1427_P035MP07E03 (VHH, tested as periplasmic extract; also called Clone nr; 597) VHH: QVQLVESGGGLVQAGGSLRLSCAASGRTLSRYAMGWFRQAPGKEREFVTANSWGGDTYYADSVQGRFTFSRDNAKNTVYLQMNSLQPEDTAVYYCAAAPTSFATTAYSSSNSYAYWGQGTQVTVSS : 0.00311

The binder listed as FJ1427_P035MP07E08 (VHH, tested as periplasmic extract; also called Clone nr) VHH: QVQLVESGGGLVQAGGSLRLSCAASGRTLSRYAMGWFRQAPGKEREFVAADSWGGDTYYDDSVEGRFTFSRDIAKNAVYLQMNSLQPEDTAVYYCAAAPTSFATTAYSSSNSYAYWGQGTQVTVSS shows koff equal to 0.00229

koff reading for FJ1427_P035MP07E04 (VHH, tested as periplasmic extract; also called Clone nr; 605) VHH: QVQLVESGGGLVQAGDSLRLSCEASGRTLSRYAMGWFRQAPGKEREFVTANSWGGDTYYADSVQGRFTFSRDNAKNTVYLQMNSLQPEDTAVYYCAAAPTSFATTAYSSSNSYAYWGQGTQVTVSS : 0.00259

binder FJ1427_P035MP07F08 (VHH, tested as periplasmic extract; also called Clone nr; 638) VHH: QVQLVESGGGLVQAGGSLRLSCAASGRTLSRDAMGWFRQAPGKEREFVAADSWGGDTFYADSVEGRFTFSRDNAKNAVYLQMNSLQPEDTAVYYCAGAPTSFATTAYSSSNSYRYWGQGTQVTVSS , koff observed: 0.00185

// sample FJ1427_P035MP07F07 (VHH, tested as periplasmic extract; also called Clone nr; 630) VHH: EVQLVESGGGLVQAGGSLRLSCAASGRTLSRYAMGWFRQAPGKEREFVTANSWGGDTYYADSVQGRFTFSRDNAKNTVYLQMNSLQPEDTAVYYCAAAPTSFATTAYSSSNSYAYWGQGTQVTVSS , its koff was 0.003

Lab book: koff of FJ1427_P035MP07E07 (VHH, tested as periplasmic extract; also called Clone nr) VHH: EVQLVESGGGLVQAGGSLRLSCAASGRTLSRYAMGWFRQAPGSEREFVAASSWGGDTFYADSVEGRFTFSRDNAKNAVYLQMNSLQPEDTAAYYCAAAPTSFPTTAYSSSNSYAYWGQGTQVTVSS noted as 0.00225

Recorded result, FJ1427_P035MP07D01 (VHH, tested as periplasmic extract; also called Clone nr; 580) VHH: QVQLVESGGGLVQAGGSLRLSCAASGRTLSRYAMGWFRQAPGKEREFVAANSWGGDTYYTDSVEGRFTFSRDNAKNAVYLQMNSLQPGDTAVYYCAAAPTSFATTAYSSSNSYSYWGQGTQVTVSS , koff: 0.00294
